Source of measurements: patent US8673852B2

# experiment: GM6 levels in brain by competitive ELISA after IV injection (blood brain barrier penetration)
# Assay type: in vivo, C57BL/6 mice
# settings: male, C57BL/6, mouse; 0.2 mg/kg IV bolus, WT mice, brain collected 4 hours later; read-out: ELISA MNTF (μM) in the brain
# Procedure: C57BL6 mice were injected with GM6 at the indicated doses and examined for GM6 in the brain. Half of the brain was taken for immunocytochemical analysis for GM6, the other half (brain) was frozen for ELISA analysis. Animals were acclimated for 1 week prior to experimentation. […] For the assay, the anti-6Mer pAb was diluted to 10 ug/ml in ELISA coating buffer. […] The reaction was stopped with 50 ul 1M HCl. and read OD450 immediately.
Ends that are not written are not given here.
resultType: level at time molar at 4 h
Include the unit right after the number.

level at time molar at 4 h for FSRYAR [GM6, FSRYAR] ?
1.76 µM

* * *

# experiment: GM6 levels in brain by competitive ELISA after IV injection (blood brain barrier penetration)
# Assay type: in vivo, C57BL/6 mice
# settings: male, C57BL/6, mouse; 2 mg/kg IV bolus, WT mice, brain collected 4 hours later; read-out: ELISA MNTF (μM) in the brain
Ends that are not written are not given here.
resultType: level at time molar at 4 h (µM)
The reply should be a number in µM, with the unit left off.

What does the data say about its level at time molar at 4 h? Entry: FSRYAR [GM6, FSRYAR]
12.9
